Entry source: paper PMC4759255

Biological target: His-LexA (Synechocystis sp. PCC 6803) (UniProt P73722)
Sequence: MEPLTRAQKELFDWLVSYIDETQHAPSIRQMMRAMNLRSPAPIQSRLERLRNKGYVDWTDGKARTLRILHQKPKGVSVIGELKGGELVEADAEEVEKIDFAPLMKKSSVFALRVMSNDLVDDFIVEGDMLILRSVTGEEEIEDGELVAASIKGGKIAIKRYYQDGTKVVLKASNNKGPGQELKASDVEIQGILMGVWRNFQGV
Assay: EMSA
Details: Roche DIG gel shift kit 2nd generation buffer per manufacturer plus 1 mM DTT, 25 min at room temperature, 6% polyacrylamide gel; 5x and 50x unlabeled …
testReadout: binding

TGGGCAGGGTAAATTGATTTTTTCTTGTTGTTTGATCCCATTTTCCAGTCTTTTTGACTTCCATTCAGTCAGGATAATTTTTGCAGTTTTTTTATGGAGTTTTGATAACATTGAGCTTTGCCCCCGGCGATCGCCTAGGGATAAACAATAAACGTGTGAACTAATATGCCTGGATTTATCCCTGGATTGACATTGTTTTTGCC (double strand) [slr1670 promoter]    binds
TGGGATCAAACAACAAGAAAAAATCAATTTACCCTGCCCATGGCAATAGTTTTAAGGTTAACAAAAAAAATAGAATTTACCGCAATCGACGGGTAAATTTCCAGAGGATACCCCCAACTCCAGAAGCAGAAATCTTGCCAGAAAAGCTTTTTCTGTTACTATACTTAACAAGTAACTACTTTTTCC (double strand) [ggpS promoter]    binds
GTGACAACTAACATCACCTAGATGATAAGTTAATTTACAACAAATGATTGTTAGCCAGCTCACCAAAACCTGTGACAATAAACACCAAAACAGTTTACTTGTTTCTATAATTTTCCCTGAAACTGGGGTTTGAGAGGGTCTAGGGGAGAATTTAGTTATTGTTTGGATATATTGTCATGGCACCACAAAAGCCGTCAACAAA (double strand) [pilA9 promoter]    binds
